Hey, just so you know, these numbers are from patent US11884670B1.

system: MDA-MB-231 (breast); assay: In vitro cytotoxic activity (MTT) assay, MDA-MB-231; assay type: cell-based; conditions: Homo sapiens; MDA-MB-231 (breast) cells, exposed for 96 hours; read-out: IC50, concentration eliciting 50% inhibition of cell proliferation

[
  {
    "smiles-notation": "O=c1[nH]ccc2c1[nH]c1c3ccncc3c(Nc3cccc(Cl)c3)nc21",
    "system-name": "MDA-MB-231 (breast)",
    "IC50, µM": 4.8
  }
]

----------
tested on: HL60 (leukemia); assay: In vitro cytotoxic activity (MTT) assay, HL60; type: cell-based; conditions: Homo sapiens, HL-60; HL60 (leukemia) cells, exposed for 96 hours; read-out: IC50, concentration eliciting 50% inhibition of cell proliferation

[
  {
    "smiles-notation": "O=c1[nH]ccc2c1[nH]c1c3ccncc3c(Nc3cccc(Cl)c3)nc21",
    "IC50 (µM)": 3.4
  }
]
